Target: DPP4 (Homo sapiens, UniProt P27487)
Sequence (P27487 whole entry): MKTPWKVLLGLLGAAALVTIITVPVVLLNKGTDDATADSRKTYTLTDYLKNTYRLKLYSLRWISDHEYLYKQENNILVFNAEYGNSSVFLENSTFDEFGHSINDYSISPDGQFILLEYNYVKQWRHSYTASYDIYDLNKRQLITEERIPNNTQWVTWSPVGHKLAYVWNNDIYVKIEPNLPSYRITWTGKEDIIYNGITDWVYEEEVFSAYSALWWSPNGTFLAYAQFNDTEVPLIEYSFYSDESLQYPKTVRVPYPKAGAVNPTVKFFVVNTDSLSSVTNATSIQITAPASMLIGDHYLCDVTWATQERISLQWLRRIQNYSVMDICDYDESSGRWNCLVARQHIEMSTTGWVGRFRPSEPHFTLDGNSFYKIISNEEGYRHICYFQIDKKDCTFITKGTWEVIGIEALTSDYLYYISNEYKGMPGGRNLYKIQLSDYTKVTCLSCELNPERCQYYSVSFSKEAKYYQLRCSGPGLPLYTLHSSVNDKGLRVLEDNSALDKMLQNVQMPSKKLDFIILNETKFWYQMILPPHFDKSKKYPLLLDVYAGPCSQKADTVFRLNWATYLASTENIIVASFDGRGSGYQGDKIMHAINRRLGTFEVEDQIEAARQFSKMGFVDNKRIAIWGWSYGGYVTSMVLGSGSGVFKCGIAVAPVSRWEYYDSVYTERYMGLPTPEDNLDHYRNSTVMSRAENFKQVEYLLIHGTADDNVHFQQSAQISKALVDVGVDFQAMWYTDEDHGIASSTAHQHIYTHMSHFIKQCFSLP
Test: DPP4 activity assay (DPP4 inhibitor screening assay kit, Cayman)
Format: biochemical
Set-up: purchased Cayman Chemical, Ann Arbor, MI, USA
Conditions: 10 µM; control mean 100.0; Figure 1A raw data
endpoint: DPP4 activity in library screen, Exp 1
Lab note: jot the number down without any unit.

Problem: Quick one: DPP4 activity in library screen, Exp 1 of Cl.N=c1ccn2c(n1)O[C@H]1[C@H](O)[C@@H](CO)O[C@H]12 [Cyclocytidine HCl] ?
Solution: 110.3

Problem: Return reported DPP4 activity in library screen, Exp 1; argument: C[C@@H]1O[C@@H](O)[C@H](O)[C@H](O)[C@H]1O.O [L-(+)-Rhamnose Monohydrate]
Solution: 92.8

Problem: Which DPP4 activity in library screen, Exp 1 reading was recorded for the molecule `C=C1C[C@@]2(O)O[C@@]3(C[C@H]2C(C)C)[C@@H](C)CC[C@@H]13` ?
Solution: 100.6

Problem: # DPP4 activity in library screen, Exp 1 lookup, item C=C1C(=O)O[C@H]2[C@H]1CC/C(C)=C/CC[C@@]1(C)O[C@@H]21 [(-)-Parthenolide]
Solution: 73.3

Problem: Bench note: what DPP4 activity in library screen, Exp 1 did O.O=c1c(O)c(-c2ccc(O)cc2O)oc2cc(O)cc(O)c12 [Morin Hydrate] show?
Solution: 79.5

Problem: Entry COC12c3c(C)cc(O)c4c(=O)occ(c34)C(=O)C1C13COC(=O)c4c(O)cc(C)c(c41)C(=O)C2C3OC(C)=O (centres unmarked) has what DPP4 activity in library screen, Exp 1?
Solution: 98.3

Problem: Reported DPP4 activity in library screen, Exp 1, molecule `Br.CCN1C[C@]2(OC(=O)c3ccccc3NC(C)=O)CC[C@H](OC)[C@]34C1[C@H](C[C@H]23)[C@@]1(O)C[C@H](OC)[C@H]2C[C@@H]4[C@]1(O)[C@H]2OC` : ____
Solution: 95.4

Problem: I am curious: what DPP4 activity in library screen, Exp 1 value has been reported for CCCCCCCCCCCCCCCC(=O)OC[C@@]1(O)C[C@@]23CC[C@@H]4c5ccoc5CC[C@@]4(C)[C@@H]2CC[C@@H]1C3 [Cafestol palmitate] ?
Solution: 96.3

Problem: Tell me the measured DPP4 activity in library screen, Exp 1 of `COc1cc(/C=C/C(=O)O)ccc1O` , please.
Solution: 97.5

Problem: What measured DPP4 activity in library screen, Exp 1 goes with COc1ccc(CC2NCCc3cc(OC)c(OC)cc32)cc1OC.Cl (centres unmarked) [Tetrahydropapaverine HCl] ?
Solution: 92.5

Problem: Look at this molecule and give its reported DPP4 activity in library screen, Exp 1. C[N+](C)(C)CC(O)CC(=O)O.[Cl-] (racemic) [DL-Carnitine HCl]
Solution: 97.3

----------
Biological target: DPP4 (Homo sapiens)
Assay: DPP4 activity assay (DPP4 inhibitor screening assay kit, Cayman)
Type: biochemical
Design: purchased Cayman Chemical, Ann Arbor, MI, USA
Conditions: 0.5 h, 10 µM; control mean 100.0; Figure 1A raw data; read-out: DPP4 activity in library screen, Exp 2
endpoint: remaining activity at 10 µM (%)
Enter your answer as a number in %; do not include the unit.

Problem: Which value of remaining activity at 10 µM has been reported for `Cc1coc2c1C(=O)C(=O)c1c-2ccc2c(C)cccc12` in the records?
Solution: 59.3

Problem: Name the recorded remaining activity at 10 µM for `O=c1cc(-c2ccc(O)c(O)c2)oc2cc(O)cc(O)c12` .
Solution: 68.3

Problem: Which remaining activity at 10 µM value is on record for `COc1ccc2cc1Oc1ccc(cc1)C[C@H]1c3cc(c(OC)cc3CCN1C)Oc1c(OC)c(OC)cc3c1[C@H](C2)N(C)CC3` ?
Solution: 98

Problem: # query: remaining activity at 10 µM of entry `COc1cc(C(C)=O)ccc1O`
Solution: 90.9

Problem: For the molecule `COc1cc(C=O)ccc1O` , what remaining activity at 10 µM is on record?
Solution: 95.3

Problem: Query (molecule): `COc1ccc2ccc(=O)oc2c1CC=C(C)C` ; field requested: remaining activity at 10 µM
Solution: 95.2

Problem: Param item = CCCC[N+]1(C)[C@@H]2C[C@@H](OC(=O)[C@H](CO)c3ccccc3)C[C@H]1[C@@H]1O[C@@H]12 (stereo partly drawn) [Butylscopolamine bromide] ; retrieve measured remaining activity at 10 µM.
Solution: 98.7

Problem: Query (molecule): `COc1ccc(-c2cc(=O)c3c(OC)c(OC)c(OC)c(OC)c3o2)cc1` ; field requested: remaining activity at 10 µM
Solution: 80.1

Problem: Would you kindly share the measured remaining activity at 10 µM for `C[C@H]1COC2=C1C(=O)C(=O)c1c2ccc2c1CCCC2(C)C` ?
Solution: 66.5

Problem: Quick one: remaining activity at 10 µM of `O=C1Nc2ccccc2/C1=C1/Nc2ccccc2C1=O` ?
Solution: 58.9

Problem: Name the reported remaining activity at 10 µM value associated with the molecule C[C@H]1[C@@H](O)O[C@@H]2O[C@@]3(C)CC[C@H]4[C@H](C)CC[C@@H]1[C@@]24OO3 [Dihydroartemisinin (DHA), Dihydroartemisinin]
Solution: 91

Problem: May I ask what remaining activity at 10 µM has been recorded for `CC1(C)O[C@H]2CC(=O)OC[C@]23[C@H]2CC[C@@]4(C)[C@H](c5ccoc5)OC(=O)[C@H]5O[C@]54[C@]2(C)C(=O)C[C@@H]13` ?
Solution: 106

Problem: For the molecule shown here, `Cc1cc2c(C(C)C)c(O)c(O)c(C=O)c2c(O)c1-c1c(C)cc2c(C(C)C)c(O)c(O)c(C=O)c2c1O` , give the reported remaining activity at 10 µM.
Solution: 59.8

Problem: Any idea what remaining activity at 10 µM was measured for `COc1ccc(C(C)=O)c(O)c1` ?
Solution: 92.8

Problem: Which remaining activity at 10 µM is listed for `CN(C)Cc1c[nH]c2ccccc12` ?
Solution: 97.4

Problem: For the molecule `COc1cc2c(cc1OC)[C@@H]1Cc3ccc(OC)c(OC)c3CN1CC2` , what remaining activity at 10 µM is on record?
Solution: 99.8

Problem: Sample `O=C(/C=C/C=C/c1ccc2c(c1)OCO2)N1CCCCC1` — what was its remaining activity at 10 µM?
Solution: 60.2

Problem: Sample `C=CCc1ccc(O)c(-c2ccc(O)c(CC=C)c2)c1` — what was its remaining activity at 10 µM?
Solution: 94.1

----------
I'd appreciate it if you could supply DPP4 activity in library screen, Mean values for the items below.
Target: DPP4 (Homo sapiens, UniProt P27487)
Experiment: DPP4 activity assay (DPP4 inhibitor screening assay kit, Cayman)
Assay type: biochemical
Parameters: purchased Cayman Chemical, Ann Arbor, MI, USA
Details: 10 µM; control mean 100.0; mean of Exp 1-3
Lab note: record just the number, no unit beside it.

Problem: // DPP4 activity in library screen, Mean lookup, key: O=C([O-])C(O)Cc1ccc(O)c(O)c1.[Na+] (stereo not shown) [Sodium Danshensu]
Solution: 92.1

Problem: Given the compound `COc1cc(CCC(C)=O)ccc1O` , what is its reported DPP4 activity in library screen, Mean?
Solution: 88.2

Problem: May I ask what DPP4 activity in library screen, Mean has been recorded for `O=c1c(O)c(-c2cc(O)c(O)c(O)c2)oc2cc(O)cc(O)c12` ?
Solution: 57.9

Problem: Any idea what DPP4 activity in library screen, Mean was measured for COc1ccc2cc3[n+](cc2c1OC)CCc1cc2c(cc1-3)OCO2.[Cl-] [Berberine HCl] ?
Solution: 55.0

----------
Molecular target: DPP4 (Homo sapiens, UniProt P27487)
Test: DPP4 activity assay (DPP4 inhibitor screening assay kit, Cayman);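 also: fluorescence read at excitation 360 nm and emission 460 nm after the enzyme reaction ran 30 min at 37 °C in a 96-well plate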
Assay type: biochemical
Design: purchased Cayman Chemical, Ann Arbor, MI, USA
Details: 0.5 h, 10 µM; control mean 100.0; mean of Exp 1-3; read-out: DPP4 activity in library screen, Mean
endpoint: remaining activity at 10 µM (%)
State just the number; it will be interpreted in %.

Problem: What value of remaining activity at 10 µM has been reported for the following compound? OCc1ccccc1O[C@@H]1O[C@H](CO)[C@@H](O)[C@H](O)[C@H]1O [Salicin]
Solution: 84.8

Problem: Give the measured remaining activity at 10 µM of COc1ccc(C(C)=O)c(O)c1 [Paeonol] .
Solution: 91

Problem: Look up remaining activity at 10 µM: C=C1CC[C@@H]2[C@](C)(CO)[C@H](O)CC[C@@]2(C)[C@@H]1C/C=C1/C(=O)OC[C@H]1O [Andrographolide]
Solution: 100

Problem: Entry CCn1cc(C(=O)O)c(=O)c2ccc(C)nc21 [Nalidixic acid] : reported remaining activity at 10 µM = ?
Solution: 94.6

Problem: Item O=c1c2ccccc2oc2ccccc12 [Xanthone] has what recorded remaining activity at 10 µM?
Solution: 82.2

Problem: Can you look up the measured remaining activity at 10 µM of O=c1[nH]cnc2nc[nH]c12 [Hypoxanthine] for me?
Solution: 98.2

Problem: Requested field: remaining activity at 10 µM. Item: C[C@H]1COC2=C1C(=O)C(=O)c1c2ccc2c1CCCC2(C)C [Cryptotanshinone]
Solution: 61.7

Problem: Record request: remaining activity at 10 µM value, item Cc1c(C(=O)NCCO)[n+]([O-])c2ccccc2[n+]1[O-] [Olaquindox]
Solution: 97.8

Problem: Which remaining activity at 10 µM reading was recorded for the compound COc1ccc(-c2cc(=O)c3c(OC)c(OC)c(OC)c(OC)c3o2)cc1OC [Nobiletin] ?
Solution: 73.1

Problem: # remaining activity at 10 µM lookup, item Nc1nc2c(ncn2[C@@H]2O[C@H](CO)[C@@H](O)[C@H]2O)c(=O)[nH]1 [Guanosine]
Solution: 98.5

Problem: Look at this compound and give its reported remaining activity at 10 µM. O=C(/C=C/c1ccc(O)c(O)c1)O[C@@H]1C[C@](O)(C(=O)O)C[C@@H](O)[C@H]1O [Chlorogenic Acid]
Solution: 84.9

Problem: Which remaining activity at 10 µM is reported for this compound? COc1cc(C=O)ccc1O [Vanillin]
Solution: 83.8

Problem: Tell me the measured remaining activity at 10 µM of O=c1c(-c2ccc(O)cc2)coc2c([C@@H]3O[C@H](CO)[C@@H](O)[C@H](O)[C@H]3O)c(O)ccc12 [Puerarin] , please.
Solution: 95.4

Problem: May I ask what remaining activity at 10 µM has been recorded for OC[C@@H](O)[C@@H](O)[C@H](O)[C@@H](O)CO [Sorbitol] ?
Solution: 92.1

Problem: Any idea what its remaining activity at 10 µM is? The compound is C=CCc1ccc(O)c(-c2ccc(O)c(CC=C)c2)c1 [Honokiol]
Solution: 102

Problem: For COc1ccc(-c2coc3cc(O)ccc3c2=O)cc1 [Formononetin] , what is its reported remaining activity at 10 µM?
Solution: 98.7

Problem: Given the compound COc1cc(O)c2c(c1)C(=O)c1cc(C)cc(O)c1C2=O [Rheochrysidin] , what is its reported remaining activity at 10 µM?
Solution: 50.3

Problem: Entry CN(C)CCc1ccc(O)cc1 [Hordenine] : reported remaining activity at 10 µM = ?
Solution: 94

Problem: Which remaining activity at 10 µM is reported for this compound? O=c1c2ccccc2nc2n1CCc1c-2[nH]c2ccccc12 [Rutaecarpine]
Solution: 73.8

Problem: Query: remaining activity at 10 µM; subject: COc1cc(C(C)=O)ccc1O [Apocynin]
Solution: 96.6
